Target: pan-HDAC
Assay: In vitro enzyme inhibition assay - HDAC (HDAC-Glo I/II), pan-HDAC
Assay type: biochemical
Where a name gives a salt, the structure may show the parent alone.
Please go through the items and note down their IC50.
Unit nM implied. Number only.

Value of measured IC50 for the entry CC(C)(O)COc1ccc(-c2cnc(N3CCC(NCc4ccc(/C=C(\F)C(=O)NO)cc4)CC3)c(C#N)c2-c2ccc(C#N)c(F)c2)cc1O [Example 198, formate] : 6.35

Value of measured IC50 for the entry `N#Cc1ccc(-c2c(-c3ccc(Cl)c(O)c3)cnc(N3CCC(NCc4ccc(/C=C/C(=O)NO)cc4)CC3)c2C#N)cn1` : 3.37

Value of measured IC50 for the entry `CC(C)(O)COc1ccc(-c2cnc(N3CCC(NCc4cnc(CCC(=O)NO)s4)CC3)c(C#N)c2-c2ccc(C#N)c(F)c2)cc1O` : 60.1

###

Target: pan-HDAC
Experiment: In vitro enzyme inhibition assay - HDAC (HDAC-Glo I/II), pan-HDAC
Format: biochemical
Counter-ions that a name gives are not always drawn.
# label = rule met if IC50 < 8 nM else rule not met

Does the reported IC50 of the following compound sit strictly below 8 nM? COc1ccc(-c2cnc(N3CCC(Nc4cccc(/C=C/C(=O)NO)c4)CC3)c(C#N)c2-c2ccc(C#N)c(F)c2)cc1O [Example 81, formate] rule not met

Does the reported IC50 of the following compound sit strictly below 8 nM? `COc1ccc(-c2cnc(N3CCC(NCc4ccc(/C=C/C(=O)NO)c(C#N)c4)CC3)c(C#N)c2-c2ccc(C#N)c(F)c2)cc1O` rule met

Does the reported IC50 of the following compound sit strictly below 8 nM? CNc1ccc(-c2cnc(N3CCC(NCc4ccc(CCC(=O)NO)cn4)CC3)c(C#N)c2-c2ccc(C#N)c(F)c2)cc1O [Example 194, hydrochloride] rule met

Does the reported IC50 of the following compound sit strictly below 8 nM? `COc1cc(-c2cnc(N3CCC(NCc4cnc(/C=C/C(=O)NO)nc4)CC3)c(C#N)c2-c2ccc(C#N)c(F)c2)ccc1O` rule not met

Does the reported IC50 of the following compound sit strictly below 8 nM? COc1ccc(-c2cnc(N3CCC(NCc4ccc(/C=C/C(=O)NO)cc4)CC3)c(C#N)c2-c2ccc([N+](=O)[O-])cc2)cc1O [Example 150, formate] rule met

###

Target: HDAC8 (Homo sapiens (Human))
Sequence (Q9BY41 whole entry): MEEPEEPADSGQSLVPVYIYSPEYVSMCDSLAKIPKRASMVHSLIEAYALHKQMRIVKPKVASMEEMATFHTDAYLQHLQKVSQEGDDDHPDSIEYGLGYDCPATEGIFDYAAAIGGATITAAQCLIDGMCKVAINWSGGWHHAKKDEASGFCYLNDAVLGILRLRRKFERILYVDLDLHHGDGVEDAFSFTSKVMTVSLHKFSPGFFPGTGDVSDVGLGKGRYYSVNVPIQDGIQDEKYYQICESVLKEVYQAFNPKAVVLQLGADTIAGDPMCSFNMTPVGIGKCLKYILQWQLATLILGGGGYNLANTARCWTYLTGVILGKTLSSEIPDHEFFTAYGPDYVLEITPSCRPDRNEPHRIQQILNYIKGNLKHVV
Assay: In vitro enzyme inhibition assay - HDAC (HDAC-Glo I/II), HDAC8
Type: biochemical
Conditions: read-out: HDAC IC50 (nM) HDAC 8
Counter-ions that a name gives are not always drawn.
MEASURE_NAME: IC50
Please give the number followed by its unit.

Value of measured IC50 for the entry COc1ccc(-c2cnc(N3CCC(NCCc4ccc(/C=C/C(=O)NO)cc4)CC3)c(C#N)c2-c2ccc(C#N)c(F)c2)cc1O [Example 45, hydrochloride] : 156 nM

Value of measured IC50 for the entry COc1ccc(-c2sc(C(=O)N3CCC(NCc4ccc(/C=C/C(=O)NO)cc4)CC3)cc2-c2ccc(C#N)c(F)c2)cc1O [Example 33, hydrochloride] : 182 nM

Value of measured IC50 for the entry N#Cc1ccc(-c2c(-c3ccc(OC(F)F)c(O)c3)cnc(N3CCC(NCc4cnc(/C=C/C(=O)NO)nc4)CC3)c2C#N)cc1F [Example 145, formate] : 74.9 nM

Value of measured IC50 for the entry COc1ccc(-c2cnc(N3CCC4(CC3)CN(Cc3ccc(/C=C/C(=O)NO)cc3)C4)c(C#N)c2-c2ccc(C#N)c(F)c2)cc1O [Example 138] : 401 nM

Value of measured IC50 for the entry CC(C)(O)COc1ccc(-c2cnc(N3CCC(NCc4ccc(CCC(=O)NO)cc4)CC3)c(C#N)c2-c2ccc(C#N)c(F)c2)cc1O [Example 188, formate] : 198 nM

Value of measured IC50 for the entry COc1ccc(-c2c(C#N)cc(N3CCC(NCc4ccc(/C=C/C(=O)NO)cc4)CC3)nc2-c2ccc(C#N)c(F)c2)cc1O [Example 176, formate] : 508 nM

Value of measured IC50 for the entry COc1ccc(-c2cnc(N3CCC(NCc4ccc(/C=C/C(=O)NO)cc4)CC3)c(C#N)c2-c2ccc(C#N)c(O)c2)cc1O [Example 166, hydrochloride] : 64 nM

Value of measured IC50 for the entry CC(C)(O)COc1ccc(-c2cnc(N3CCC(NCc4cnc(CCC(=O)NO)s4)CC3)c(C#N)c2-c2ccc(C#N)c(F)c2)cc1O [Example 185] : 2160 nM

Value of measured IC50 for the entry COc1ccc(-c2ccc(N3CCC(NCc4ccc(/C=C/C(=O)NO)cc4)CC3)c(C#N)c2-c2ccc(C#N)c(F)c2)cc1O [Example 84] : 73.6 nM

Value of measured IC50 for the entry COc1cc(F)c(-c2cnc(N3CCC(NCc4ccc(/C=C/C(=O)NO)cc4)CC3)c(C#N)c2-c2ccc(C#N)c(F)c2)cc1O [Example 130] : 220 nM

Value of measured IC50 for the entry COc1cc(-c2cnc(N3CC4CC3CC4NCc3ccc(/C=C/C(=O)NO)cc3)c(C#N)c2-c2ccc(C#N)c(F)c2)ccc1O (stereo not drawn) [Example 94] : 256 nM

Value of measured IC50 for the entry COc1cc(-c2ccc(CN3CC[C@H](NCc4ccc(/C=C/C(=O)NO)cc4)C3)cc2-c2ccc(C#N)c(F)c2)ccc1O [Example 75] : 212 nM
